assay: amyloid nucleation score (Sup35N fusion, yeast selection) (log enrichment); library NNK3; higher = more nucleation; inactive = no reads after selection;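 further: zero at mode of non-aggregating sequences after 7 days selection at 30°C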
Endpoint name: amyloid nucleation score

1. TPLARFFTCPHIYYLSPGHS = inactive
2. PFSSLASVVPLRGFG = inactive
3. CGWMTHSEL = inactive
4. LSEMANDHEHVYSYRKAHYM = -0.626
5. LGCSVTTVSV = inactive
6. CNIEGYNETNVCECWNMELL = inactive
7. IGRVTSMGRMLHGNW = inactive
8. GWTLQWIVWI = 0.081
9. HIVKIRSG = inactive
10. RPAVLGPAFRYSSLAP = inactive
11. CVVVETLLNMRRSRY = inactive
12. SIFMCNIVLFKRVVLPRGAS = 0.886
13. NLVWICFFNGRNYLSMRDRA = 1.34
14. LLRSCYVSYALNGYSTTFRD = inactive
15. LYMNFSMDGIASVSLGVLRL = 0.633
16. MSGALFMGLGTGRSRVTRNL = inactive
17. RSHPKCHSSLLHSWK = inactive
18. EVHLSINEINLYVIEDEGSL = 0.013
19. IPFGLANSRFNVFASVMSDC = inactive
20. QCVRSMLEELRIGYKVHRQS = inactive
21. PTCGMDFVLQEYTKT = inactive
22. FSPTIGTTWDTLMF = inactive
23. MYFEECGRCFNRSFNYGVNQ = inactive
24. HYLYRNCNVAVTVRSLTV = inactive
25. AWKTFFVIYSS = 0.406
26. NIALFEILSSGIIVSNSNER = inactive
27. MRSNSTVYGTFTRSNVLHIP = inactive
28. CCMYMISCRDN = inactive
29. QYAAMATGNLYLS = inactive
30. ESDAFKLCAYDLNIMNISRF = inactive
31. AMGLACGLDGSAVFGCMLTT = inactive
32. SVSPCSTHFLMSFERYVRGT = inactive
33. KLVATVFTSRCATVWLVQGF = inactive
34. GYECLIVFFMRLLSIPVVSD = inactive
35. SYGVGWVYTEFGNLLRSFGL = inactive
36. GSPQVSAAGQF = inactive
37. TVIMNLYAPP = 2.51
38. CVTYSYCYCQANHFHCRCQQ = 2.88
39. GIYRYVQGWHDAPHGGNCTE = inactive
40. IVLNKSILYADTCPLFPTMR = 0.655
41. LPTIQILRQNTVPIGVHHKF = inactive
42. VPTVLDRFDMMHVSEYRDGA = inactive
43. TSLVKRSALVFYTGTLIYPF = inactive
44. SSTNSYTSSLVSVSLVGDGA = inactive
45. VRLRVEYAKSEWKMIFGEFY = inactive
46. NVDVYVGVPAQVGFVILFWT = -0.241
47. HCGWMAFFISLAPQFVYVLI = inactive
48. VLRSNHFD = inactive
49. WVDYLYNSLESIRMCWANVY = inactive
50. IFSYLEEECDPRWRGPLKPL = inactive
51. GQVYMSVRV = inactive
52. KVFMGRCCWLCSPY = 1.42
53. FRDCMVINDMVVWDFCTSCA = inactive
54. KYWDPQFP = inactive
55. YGNVIFRFVRADERI = 0.314
56. TRDFRTCNGLANKVRSKVCS = inactive
57. SSDTGRCIKVDALRCRMGSR = inactive
58. MPSEILVSGIAGYAWAVSR = -0.504
59. MDEGIVKTELFYRWRISRLG = inactive
60. TVSIKSAHATRTQVVPNMSF = inactive
61. LALCSTCFNLVYIICVGKKW = inactive
62. VFLKSNSAVQLSFRFNYHNL = inactive
63. HMIKVIVLCMMRFFIKSKNS = inactive
64. FLLSVMRELSKYYYIIFSTS = inactive
65. IDCILVTGLHVDLLEWQKRQ = 2.03
66. WSETNTFS = inactive
67. TLPLTHYVYVVMLKSSSTGC = inactive
68. SSQFTHEETGFCDVVPVVCG = inactive
69. GSRDYCVVNSIESDNCFQGW = inactive
70. CGLRIRWSNVLYSRRTCGFT = inactive
71. PCPLGPYLGYFTETSYAHGM = inactive
72. TTGLFE = inactive

====

test: amyloid nucleation score (Sup35N fusion, yeast selection) (log enrichment); library NNK1; higher = more nucleation; inactive = no reads after selection
Consider the following substances and their measured amyloid nucleation score readings.
Endpoint name: amyloid nucleation score

1. DYDGWQLPMCNNITMTWKVC = 2.7
2. GYIDFCFLWD = -0.333
3. VMHLWLVYCHTTVS = 0.755
4. RSLKMINNYISKLHVLMGFH = -0.281
5. IKHLKNMGFCVRESLYSDRF = -0.042
6. NTTHDGLRCEIRVWSENRRR = 1.39
7. CPVWELLKDCMCHKNGLFCT = 1.28
8. DQVTYRPWLRELRRQAMCLQ = 0.027
9. VGFEGHS = -0.58
10. LWKNVVWTTGPIIASWVSDL = 2.04
11. EYLSMNRLRERSYYLGNRTF = 0.077
12. CDVRLPF = 0.249
13. MSAIVSHYLVHCKFQSGNSH = 3.63
14. MRIHCVN = -0.529
15. TDAQWGIFYDENIYPLDVFC = 0.075
16. LDVLLLLMDCSRYPKIKGGI = -0.012
17. HSIWSRERVVVGVIYVCNFN = 7.23

====

experiment: amyloid nucleation score (Sup35N fusion, yeast selection) (log enrichment); library NNK2; higher = more nucleation; inactive = no reads after selection
Endpoint name: amyloid nucleation score

1) LRSGGLFRDIMCRRDYVRCF = 1.23
2) RLVSKEATCPR = -0.058
3) GENVVEACLWGQSQASWFIR = -0.009
4) MTRVTYMYVFIYACESRYTH = -0.116
5) VRHGMSIFSCYPVTPTRLER = 0.266
6) HIGCIRWFSCGGSPLSMNRL = 1.24
7) SFHFCWFRYNWCYFGLS = 0.058
8) RMVRGLAFGDFWASSMRKYP = 0.241

====

assay: amyloid nucleation score (Sup35N fusion, yeast selection) (log enrichment); library NNK3; higher = more nucleation; inactive = no reads after selection
Endpoint name: amyloid nucleation score

1. NNLNQRYYTRHLQSGNLFCS = inactive
2. FSRFSNAFPKNCWVLLVENS = inactive
3. GLVWTW = -0.01
4. CLSFYCTVSKKVRRKAVTPF = 0.807
5. VMRFHVLKVLACCVNGGFDL = 2.73
6. SQWWNVDPRSTQCASGAMRC = inactive
7. CYSKYSS = inactive
8. LAITLRLLFVNIIFTDPDLY = inactive
9. ICGNPLVLLMNNSVRLG = 0.092
10. PFCFELSWGYGKNKVATMRY = inactive
11. SRSLIRINWFRGKKLCYGFE = inactive
12. RGLVLVFVREAYRREY = 0.598
13. GPGNMAMNVRAVKSGYHIAG = inactive
14. YRDCISEGLKLSNWNELLGK = inactive
15. NWRLFWG = 1.6
16. VPSNLGKPHMCRRSRDYFTA = inactive
17. LLECNRTMPQLMVWEVFCSV = inactive

====

Consider the following substances and their measured amyloid nucleation score readings.
assay: amyloid nucleation score (Sup35N fusion, yeast selection) (log enrichment); library NNK1; higher = more nucleation; inactive = no reads after selection
Endpoint name: amyloid nucleation score

1. VAWSPLRSSKPGTLSTVGDT = 0.83
2. FHPAMVVICILWHKR = 1.62
3. NFVFGHNGGACSYVGLLM = 1
4. DQFCDMPTWVLVMYKSRDFL = 0.862
5. YLLCFWILCFTAVGIFTGFN = 0.456
6. RLSNYFNLECEQIRSYYRYM = 1.85
7. LRIHGSTLRISLW = 1.64
8. MVDSYWGWCAMK = 1.22
9. TFQLKMWEHVVLPDVSMAST = 0.669
10. GLLGGIGRRRTMG = -0.643
11. FVGSRRGLARVAEYGWLYHG = -0.464
12. ALVALRAY = 0.364
13. AYETLR = -0.385
14. YLSMFVWTGGNM = 2.08
15. KSGDMWW = 0.087
16. DGSNRHLSRSMVGRGRT = 0.335
17. SYNRIILTFWSFLL = 1.13
18. WRSVPRASFRNWSLWDPLYT = 0.453

====

experiment: amyloid nucleation score (Sup35N fusion, yeast selection) (log enrichment); library NNK2; higher = more nucleation; inactive = no reads after selection
Consider the following substances and their measured amyloid nucleation score readings.
Endpoint name: amyloid nucleation score

1. HDRIFSIKSWWCRSIWEVGV = -1.79
2. GAEFTFGLFTYEFGIGQG = 0.285
3. FPTFFCLAIIWKYMFLLIKF = -0.238
4. VVAVVPYFN = -0.202
5. YANDFLRLVHVWFREVIIKL = -0.398
6. ILFIIWGHLRYVRIVSYVGY = -1.48
7. PISFVCYMEKVLDYANWPCR = 8.46
8. LTATLAFLVSCFYCSL = 6.95
9. LVNSKYDLGSSGSFDNRFAC = -0.242
10. QLYKRSE = 0.256
11. RGLTKLSVLFRQNKESYNIV = -0.521
12. HSNGKMNTTIHVVSELTVMR = 4.31
13. MNDLMYVVLSRCSMIGNCGS = 1.29
14. LSDAMILNLRAIFSSISLLQ = -0.86
15. SYNKMMVDRFKYADLRDVRA = 1.03
16. VVRAFTDKPRSVSDSLGVIN = 1.16
17. RFSELSHK = -0.144
